B1: Azoarcus group I ribozyme (parent)
chain: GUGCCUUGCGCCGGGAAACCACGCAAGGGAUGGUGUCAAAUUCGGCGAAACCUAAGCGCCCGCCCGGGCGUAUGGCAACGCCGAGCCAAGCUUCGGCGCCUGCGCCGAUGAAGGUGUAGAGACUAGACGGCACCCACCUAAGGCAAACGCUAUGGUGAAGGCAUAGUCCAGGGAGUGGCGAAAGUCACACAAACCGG

Variants of: B1
Test: reverse-splicing fitness (ratio to wild type); higher = more active; in vitro selection; Mg2+ level not given
Classify on reverse-splicing fitness using small value = under 0.007, mid value = from 0.007 up to 0.01, large value = 0.01 and over

# count of solved cases: 3
// query Pick a category. Item: C82U A111G A120G A145G C150U C169A U176A
// result large value

// query Follow-up item: C82U A111G A120G A145U C150G C169U
// result mid value

// query Another: C82U A120U A145C C150A U176A
// result small value

---
// query Which band does C82A A111U A120U A145U C150G C169A fall in?
// result small value

// query And what about the variant C82A A111C A120G A145U C150G C169A U176A ?
// result mid value

// query And the next one, C82G A111G A120U C150U U176C ?
// result large value

// query Note, next up: C82A A111C A120C A145C C169G U176C
// result large value

// query Follow-up entry: C82A A111G A120C A145C C150A U176C
// result large value

// query Next up: A111U A120C A145C C150U C169G
// result mid value

// query Proceed to C82U A111G A120G A145C C169A U176C
// result small value

// query Query C82U A120U A145G C150G U176G next
// result small value

// query // repeat for A111C A120U C150G C169G U176G and report
// result small value

// query Also A111G A145C C169U ?
// result large value

// query Another variant: A120G A145U C169G
// result large value

// query Moving on to the next variant: C82A A111C A145C U176G
// result large value

Sourced from the RNAGym collection of RNA variant scans (doi:10.1093/molbev/msab373)
